target: Itk (Homo sapiens, UniProt Q08881); construct: Kinases are expressed as either kinase domains or full length constructs; made in house; assay: Kinase inhibition assay (33P transfer), Itk; type: biochemical; details: Table 3; read-out: Itk-1
Sequence (Q08881 whole entry, species assumed, the tested form may be a part): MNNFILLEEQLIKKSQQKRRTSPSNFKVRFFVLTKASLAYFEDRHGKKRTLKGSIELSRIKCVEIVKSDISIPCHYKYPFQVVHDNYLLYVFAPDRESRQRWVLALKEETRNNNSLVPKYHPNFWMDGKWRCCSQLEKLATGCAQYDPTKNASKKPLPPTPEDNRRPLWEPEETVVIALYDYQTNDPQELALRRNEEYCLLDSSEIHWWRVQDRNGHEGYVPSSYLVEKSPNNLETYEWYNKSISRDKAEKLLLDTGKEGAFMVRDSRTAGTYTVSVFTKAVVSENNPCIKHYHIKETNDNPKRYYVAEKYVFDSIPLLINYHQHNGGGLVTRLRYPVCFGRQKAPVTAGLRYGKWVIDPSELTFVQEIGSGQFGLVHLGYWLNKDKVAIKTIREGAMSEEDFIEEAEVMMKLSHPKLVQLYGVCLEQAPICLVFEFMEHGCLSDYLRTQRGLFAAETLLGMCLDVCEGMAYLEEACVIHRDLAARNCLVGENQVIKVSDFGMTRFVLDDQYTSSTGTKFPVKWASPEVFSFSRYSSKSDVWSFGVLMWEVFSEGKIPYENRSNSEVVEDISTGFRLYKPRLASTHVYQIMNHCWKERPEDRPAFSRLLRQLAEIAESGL
Listed here are molecules together with their documented IC50.

Would you please look over these solved cases?
COc1cc(Nc2ncnc(N[C@@H](CO)c3ccccc3)n2)cc(OC)c1OC ... > 11.3 µM
COc1cc(Nc2ncnc(Nc3cc(C)c(O)cc3C)n2)cc(OC)c1OC ... > 11.3 µM
COc1cc(Nc2ncnc(-n3cc(OC(C)=O)c4ccccc43)n2)cc(OC)c1OC ... > 10.3 µM
COc1cccc(Nc2ncnc(Nc3ccc(OCc4ccccc4)cc3)n2)c1 ... > 11.3 µM
Clc1ccccc1Nc1ncnc(-n2cccc2)n1 ... > 16.6 µM

Q: # get_value(readout='IC50', item= `NC(=O)c1ccc(Nc2ncnc(Nc3cc(-c4ccco4)n[nH]3)n2)cc1` )
Result: 6.62 to 9.66 µM

Q: # get_value(readout='IC50', item= `Oc1ccc(Nc2ncnc(-c3ccccc3)n2)cc1` )
Result: > 17 µM

Q: # get_value(readout='IC50', item= `FC(F)(F)c1ccc(Cl)c(Nc2ncnc(-n3cccc3)n2)c1` )
Result: > 13.2 µM

Q: # get_value(readout='IC50', item= `COc1cc(Nc2ncnc(N3CCc4ccc([N+](=O)[O-])cc43)n2)cc(OC)c1OC` )
Result: > 10.6 µM

Reference source for all entries: patent US7074789B2
